Reported absolute recovery by item:
- Test: absolute recovery over mixed-bed multilayer solid-phase extraction; higher = better recovery
- Test settings: wastewater effluent; enrichment method: SPE

The cases that follow already have their absolute recovery on record.
Q: Dear colleague, I am looking for the recorded absolute recovery of the following molecule: CC(C)c1ccc(NC(=O)N(C)C)cc1 [Isoproturon]
Result: 97%

Q: Dear colleague, I am looking for the recorded absolute recovery of the following molecule: CCOC(=O)C1CC(=O)C(=C([O-])C2CC2)C(=O)C1 (centres undefined) [Trinexapac-ethyl]
Result: 90.1%

Q: Dear colleague, I am looking for the recorded absolute recovery of the following molecule: COc1ccc(CCC(=O)c2c(O)cc(OC3OC(CO)C(O)C(O)C3OC3OC(C)C(O)C(O)C3O)cc2O)cc1O (centres undefined) [Neohesperidin-dihydrochalcon]
Result: 90.1%

# ---- query molecule ----
Q: Dear colleague, I am looking for the recorded absolute recovery of the following molecule: C[N+](C)([O-])CCC(c1ccccc1)c1ccccn1 (centres undefined) [Pheniramine-N-oxide]
Result: 88.3%

----------
- Test: absolute recovery over mixed-bed multilayer solid-phase extraction; higher = better recovery
- Test settings: surface water; enrichment method: SPE
Outcome label depends on absolute recovery relative to 90%: at/above gives yes, below gives no.

Known results for molecules:
Q: Is absolute recovery for COC(=O)c1cccc(C)c1S(=O)(=O)[N-]C(=O)Nc1nc(OCC(F)(F)F)nc(N(C)C)n1 [Triflusulfuron-methyl] at or above 90%?
Result: yes

Q: Is absolute recovery for O=C(NCCN1CCOCC1)c1ccc(Cl)cc1 [Moclobemid] at or above 90%?
Result: yes

Q: Is absolute recovery for CCC(C(N)=O)N1CCCC1=O (stereo not given) [Levetiracetam] at or above 90%?
Result: no

Turning to the following molecule.
Q: Is absolute recovery for CC12CC3CC(C)(C1)CC([NH3+])(C3)C2 [Memantine] at or above 90%?
Result: no

----------
Reported absolute recovery by item:
- Test: absolute recovery over mixed-bed multilayer solid-phase extraction; higher = better recovery
- Test settings: wastewater effluent; enrichment method: SPE
Return type: number; implicit unit %.

The cases that follow already have their absolute recovery on record.
Q: Dear colleague, I am looking for the recorded absolute recovery of the following compound: CON=C(C(=O)OC)c1ccccc1COc1ccccc1C
Result: 103

Q: Dear colleague, I am looking for the recorded absolute recovery of the following compound: CNC(=O)ON=C(C)SC
Result: 79

Q: Dear colleague, I am looking for the recorded absolute recovery of the following compound: O=C([O-])Cc1ccccc1Nc1c(Cl)cc(O)cc1Cl [4-Hydroxydiclofenac A]
Result: 76.2

# ---- query compound ----
Q: Dear colleague, I am looking for the recorded absolute recovery of the following compound: O=C([O-])c1ccccc1Nc1cccc(C(F)(F)F)c1
Result: 87.9

----------
- Test: LC retention time (Atlantis T3, 5-95% MeOH gradient, 0.1% formic acid); higher = more retained / less polar
Endpoint name: LC retention time (min)
Return type: number; implicit unit min.

Q: Dear colleague, I am looking for the recorded LC retention time of the following molecule: CSC1=NC(C)(c2ccccc2)C(=O)N1Nc1ccccc1 (stereo not given)
Result: 19.2

Q: Dear colleague, I am looking for the recorded LC retention time of the following molecule: COC(=O)c1ccccc1S(=O)(=O)[N-]C(=O)N(C)c1nc(C)nc(OC)n1
Result: 18.1

Q: Dear colleague, I am looking for the recorded LC retention time of the following molecule: CC(C)Oc1cccc(NC(=O)c2ccccc2C(F)(F)F)c1
Result: 19.5

Q: Dear colleague, I am looking for the recorded LC retention time of the following molecule: O=C([O-])c1ccc(-c2ccccc2-c2nn[nH]n2)cc1
Result: 16.4

Q: Dear colleague, I am looking for the recorded LC retention time of the following molecule: CCNC(=O)C(C)OC(=O)Nc1ccccc1 (stereo not given)
Result: 16.5

Q: Dear colleague, I am looking for the recorded LC retention time of the following molecule: N#Cc1cc(I)c([O-])c(I)c1
Result: 19.3

Q: Dear colleague, I am looking for the recorded LC retention time of the following molecule: COc1ccc(CN(CC[NH+](C)C)c2ccccn2)cc1
Result: 18.4

Q: Dear colleague, I am looking for the recorded LC retention time of the following molecule: Cc1nc2n(c(=O)c1CC[NH+]1CCC(c3noc4cc(F)ccc34)CC1)CCCC2
Result: 13.3

Q: Dear colleague, I am looking for the recorded LC retention time of the following molecule: CCCCNC(=O)OCC#CI
Result: 18.1

# ---- query molecule ----
Q: Dear colleague, I am looking for the recorded LC retention time of the following molecule: COCCN(C(=O)CCl)c1c(C)cccc1C
Result: 18.8
